# Tested on: SUDHL5
# assay_details: Anti-proliferative effect (CellTiter-Glo, 72 h), SUDHL5
# Format: cell-based
# test_conditions: Homo sapiens, SU-DHL-5, 72 h, SUDHL5 cells, antiproliferation, 72 h incubation, median, read-out: Antiproli SUDHL5 [M] (median)
attribute_measured: IC50 (M)

[I] CN1CCN(c2ccc(OCc3nn(C)c4c3-c3cccc5c(CCCOc6cccc7ccccc67)c(C(=O)O)n(c35)CCCCOC4)cc2)CC1 (racemic)
[II] CC(C)OCc1nn(C)c2c1-c1cccc3c(CCCOc4cccc5ccccc45)c(C(=O)O)n(c13)CCCN(C)C2 (single isomer, unassigned)
Between I and II , which one shows the larger IC50 value? Mark your selection by writing its label.
II

[A] O=C(O)c1c(CCCOc2cccc3ccccc23)c2cccc3c2n1CCCCOCc1nn2c(c1-3)OCCC2 (racemic)
[B] CCc1c2c(nn1C)COCCCCn1c(C(=O)O)c(CCCOc3cccc4ccccc34)c3ccc(C)c-2c31 (racemic)
Record comparison, field IC50: mark the lower of A and B . Mark your selection by writing its label.
B
(B: 7.96e-07 M, A: 5.26e-06 M)

* * *

# Tested on: SUDHL10
# assay_details: Induction of cytotoxicity (CellTiter-Glo, 5 h), SUDHL10
# test_conditions: read-out: Cytotox SUDHL10 [M] (median); SUDHL10 cells, cytotoxicity induction, CellTiter-Glo, 5 h incubation, median
attribute_measured: IC50 (M)
I only need the number, in M, no unit after it.

Look up and report measured IC50 for this entry: CCc1nn(C)c2c1-c1c(C)ccc3c(C(C)CCOc4cccc5ccccc45)c(C(=O)O)n(c13)CCCCOC2 (single isomer, unassigned) [Example 275]
2.83e-05

Look up and report measured IC50 for this entry: CCc1c2c(nn1C)COCCCCn1c(C(=O)O)c(CCCOc3cccc4ccccc34)c3cccc-2c31 (single isomer, unassigned; enantiomer 1) [Example 148]
2.4e-06

Look up and report measured IC50 for this entry: Cn1nc(COc2ccc(N3CCN(S(C)(=O)=O)CC3)cc2)c2c1COCCCCn1c(C(=O)O)c(CCCOc3cccc4ccccc34)c3cccc-2c31 (single isomer, unassigned; enantiomer 2) [Example 1-10]
4.74e-07

Look up and report measured IC50 for this entry: CCc1c2c(nn1C)COCCCCn1c(C(=O)O)c(CCCOc3cccc4ccccc34)c3ccc(C)c-2c31 (single isomer, unassigned; enantiomer 1) [Example 154]
2.03e-06

* * *

# Tested on: SUDHL10
# assay_details: Induction of caspase-3/7 activity (Caspase-Glo 3/7), SUDHL10
# Assay type: cell-based
# test_conditions: Homo sapiens, SU-DHL10, 3 h, caspase-3/7 induction, SUDHL10 cells, 3 h treatment; median
attribute_measured: EC50 (µM)

• CN(C)S(=O)(=O)N1CCN(c2ccc(OCc3nn(C)c4c3-c3cccc5c(CCCOc6cccc7ccccc67)c(C(=O)O)n(c35)CCCCCC4)cc2)CC1 (racemic) [Example 1-39] = 2.45
• COCC(=O)N1CCN(c2ccc(OCc3nn(C)c4c3-c3cccc5c(CCCOc6cccc7ccccc67)c(C(=O)O)n(c35)CCCCOC4)cc2)CC1 (racemic) [Example 1-27] = 7.5
• Cn1nc(COc2ccc(N3CCN(S(C)(=O)=O)CC3)cc2)c2c1COCCCCn1c(C(=O)O)c(CCCOc3cccc4ccccc34)c3cccc-2c31 (racemic) [Example 1-8] = 0.953
• Cc1ccc2c(C(C)CCOc3cccc4cc(F)ccc34)c(C(=O)O)n3c2c1-c1c(nn(C)c1C)COCCCC3 (racemic) [Example 276] = 10.3
• CN1CCCn2c(C(=O)O)c(CCCOc3cccc4ccccc34)c3cccc(c32)-c2c(COCc3ccccc3)nn(C)c2C1 (racemic) [Example 1-93] = 31.8

[a] CCc1nn(C)c2c1-c1c(C)ccc3c(C(C)CCOc4cccc5cc(F)ccc45)c(C(=O)O)n(c13)CCCCOC2 (racemic) [Example 261]
[b] Cc1c2c(nn1CC(F)(F)F)COC/C=C\Cn1c(C(=O)O)c(CCCOc3cccc4ccccc34)c3cccc-2c31 (racemic) [Example 091]
[c] Cc1ccc2c(CCCOc3cccc4ccccc34)c(C(=O)O)n3c2c1-c1c(C)nn(C)c1COCCCC3 (racemic) [Example 027]
[d] COCc1nn(C)c2c1-c1cccc3c(CCCOc4cccc5ccccc45)c(C(=O)O)n(c13)CCCN(C)C2 (single isomer, unassigned; enantiomer 1) [Example 1-103]
[e] Cn1nc(COc2ccc(C3=CCOCC3)cc2)c2c1COCCCCn1c(C(=O)O)c(CCCOc3cccc4ccccc34)c3cccc-2c31 (single isomer, unassigned) [Example 1-62]
Order field: EC50 | Direction: descending (largest first) To answer, write out the labels according to the requested order.
b, c, e, d, a

[P] Cn1nc(COC2CC2)c2c1COCCCCn1c(C(=O)O)c(CCCOc3cccc4ccccc34)c3cccc-2c31 (single isomer, unassigned) [Example 214]
[Q] Cc1ccc2c(CCCOc3cccc4ccccc34)c(C(=O)O)n3c2c1-c1c(nn(C)c1C)COCCCC3 (racemic) [Example 075]
[R] Cn1nc(COc2ccc(N3CCN(C(=O)C4CC4)CC3)cc2)c2c1COCCCCn1c(C(=O)O)c(CCCOc3cccc4ccccc34)c3cccc-2c31 (racemic) [Example 1-21]
Sort the compounds on EC50; start with the lowest figure. To answer, write out the labels according to the requested order.
R, Q, P
(R: 2.82 µM, Q: 6.36 µM, P: 20.7 µM)

[a] COCCn1nc(C2CC2)c2c1COCCCCn1c(C(=O)O)c(CCCOc3cccc4c3CCCC4)c3cccc-2c31 (single isomer, unassigned; enantiomer 1) [Example 165]
[b] CCn1nc2c(c1C1CC1)-c1cccc3c(CCCOc4cccc5ccccc45)c(C(=O)O)n(c13)CCCCOC2 (single isomer, unassigned; enantiomer 1) [Example 082]
Record comparison, field EC50: mark the lower of a and b . Mark your selection by writing its label.
a

* * *

# System: SUDHL5
# assay_details: Anti-proliferative effect (CellTiter-Glo, 72 h), SUDHL5
# Assay type: cell-based
# test_conditions: Homo sapiens, SU-DHL-5, 72 h, SUDHL5 cells, antiproliferation, 72 h incubation, median, read-out: Antiproli SUDHL5 [M] (median)
attribute_measured: IC50 (M)

* Cn1nc2c(c1C(F)(F)F)-c1cccc3c(CCCOc4cccc5ccccc45)c(C(=O)O)n(c13)CCCCOC2 (racemic) [Example 186] | 8.69e-06
* Cn1nc(CN2CCOCC2)c2c1COCC=CCn1c(C(=O)O)c(CCCOc3cccc4ccccc34)c3cccc-2c31 (single isomer, unassigned; enantiomer 1) [Example 133] | 1.62e-05
* COCCn1nc2c(c1CN1CCOCC1)-c1cccc3c(CCCOc4cccc5ccccc45)c(C(=O)O)n(c13)CCCN(C)C2 (single isomer, unassigned; enantiomer 1) [Example 057] | 1.04e-05
* CN(C)S(=O)(=O)N1CCN(c2ccc(OCc3nn(C)c4c3-c3cccc5c(CCCOc6cccc7ccccc67)c(C(=O)O)n(c35)CCCCCC4)cc2)CC1 (racemic) [Example 1-39] | 5.77e-06
* CCc1nn(C)c2c1-c1c(C)ccc3c(C(C)CCOc4cccc5ccccc45)c(C(=O)O)n(c13)CCCCOC2 (racemic) [Example 271] | 1.27e-05
* CN(C)S(=O)(=O)N1CCN(c2ccc(OCc3nn(C)c4c3-c3cccc5c(CCCOc6cccc7ccccc67)c(C(=O)O)n(c35)CC=CCOC4)cc2)CC1 (racemic) [Example 1-17] | 2.99e-06
* CN(C)S(=O)(=O)N1CCN(c2ccc(OCc3nn(C)c4c3-c3cccc5c(CCCOc6cccc7ccccc67)c(C(=O)O)n(c35)CCCCCC4)cc2)CC1 (single isomer, unassigned; enantiomer 1) [Example 1-40] | 5.8e-06
* Cc1nn(C)c2c1-c1cccc3c(CCCOc4cccc5c4CCCC5)c(C(=O)O)n(c13)CCCCOC2 (racemic) [Example 006] | 3.22e-06
* Cc1c2c(nn1C)COC/C=C\Cn1c(C(=O)O)c(CCCOc3cccc4ccccc34)c3cccc-2c31 (racemic) [Example 062] | 4.17e-06
* Cc1nn(CC(F)(F)F)c2c1-c1cccc3c(CCCOc4cccc5c4CCCC5)c(C(=O)O)n(c13)CCCCOC2 (racemic) [Example 161] | 1.36e-05

[a] Cc1nn(C)c2c1-c1cccc3c(CCCOc4cccc5ccccc45)c(C(=O)O)n(c13)CCCCOC2 (racemic) [Example 1-33]
[b] CCc1nn(CCN2CCOCC2)c2c1-c1cccc3c(CCCOc4cccc5ccccc45)c(C(=O)O)n(c13)CCCCOC2 (racemic) [Example 198]
[c] Cn1nc(COc2ccc(N3CCN(S(=O)(=O)C4CC4)CC3)cc2)c2c1COCCCCn1c(C(=O)O)c(CCCOc3cccc4ccccc34)c3cccc-2c31 (racemic) [Example 1-11]
[d] Cn1nc2c(c1OC(F)F)-c1cccc3c(CCCOc4cccc5ccccc45)c(C(=O)O)n(c13)CCCCOC2 (racemic) [Example 234]
Order field: IC50 | Direction: descending (largest first) To answer, write out the labels according to the requested order.
d, a, b, c
(d: 3.15e-05 M, a: 9.78e-06 M, b: 3.35e-06 M, c: 7.61e-07 M)

[1] Cc1c2c(nn1C1CC1)COCCCCn1c(C(=O)O)c(CCCOc3cccc4ccccc34)c3cccc-2c31 (racemic) [Example 092]
[2] COCCn1nc(C2CC2)c2c1COCCCCn1c(C(=O)O)c(CCCOc3cccc4ccccc34)c3cccc-2c31 (racemic) [Example 102]
Record comparison, field IC50: mark the lower of 1 and 2 . Mark your selection by writing its label.
1

[A] CN1CCCCn2c(C(=O)O)c(CCCOc3cccc4ccccc34)c3cccc(c32)-c2c(/C=C/F)nn(C)c2C1 (racemic) [Example 225]
[B] CCn1nc(C2CC2)c2c1COCCCCn1c(C(=O)O)c(CCCOc3cccc4ccccc34)c3cccc-2c31 (racemic) [Example 088]
Between A and B , which one shows the larger IC50 value? Mark your selection by writing its label.
B

Data provenance: patent US10981932B2
